system: Byssochlamys nivea SUN10
endpoint_name: MIC (µg/mL)
Answers are plain numbers, in µg/mL.

# compound, MIC, µg/mL
data = [
    ("O=C(O)CCCCCCCCCCCCCC(O)CO[C@@H]1O[C@H](COC(=O)O)[C@@H](O[C@@H]2O[C@H](CO)[C@@H](O)[C@H](O)[C@H]2OC(=O)CC(O)CCO)[C@H](O)[C@H]1O (stereo partly shown)", 125),
]

Please supply MIC for each of the following items, keeping them in order.
1. CCCCCC(O)CC(=O)O[C@H]1[C@H](O[C@H]2[C@H](O)[C@@H](O)[C@H](OCC(O)CCCCCCCCCCCCCC(=O)O)O[C@@H]2COC(C)=O)O[C@H](CO)[C@@H](O)[C@@H]1O (stereo partly shown)
2. O=C(O)OC[C@H]1O[C@@H](OCC(O)CCCCCCCCCCCCC(O)C(=O)O)[C@H](O)[C@@H](O)[C@@H]1O[C@@H]1O[C@H](CO)[C@@H](O)[C@H](O)[C@H]1O (stereo partly shown)

Given back:
[500, 250]
